Assay Remarks: soluble fraction after stress (log2 fold change); higher = more stays soluble; pooled small domains, quantitative proteomics;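 note: 20 min heating vs room temperature control held 20 min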
Assay Conditions: stress: 75 degC
Assign class by soluble fraction (log2): not lower than -0.2 means true (1); lower than -0.2 means false (0).

>>> df
                              item_sequence  class_label
0  HMEIPRYRLIGADGGRMVDLGEGQGAIPPVDVKRGMIDMPGLGKGYYTADGKSAVITNADGSKTRVL    false (0)
1  HMVVVMNADAEADEIKRVKWNLEQMLFRTQVIYGVKRIVIGAIGDQREVDLSEIEQMPKVDKIVRISK    false (0)
2  HMAIMISINAKGEVAWNDQIISLDDLAQRFNAAGQQAQKPTVQLRADKESRYDMVAQVMSRASEAGLSDIA    false (0)
3  HMTAVAAEQQAQDAYRQTAANNLNEIQAKYKLPDSESDDFFTFAYERGFTQEDFIDIGLVDKIMGDYV     true (1)
4  HMDQEDAYMQVRQVFDTLLVSELSKRIFAWRFFEGKSFAEWPGAESQKFLYDTFNRILLIISAKIRRKNA     true (1)
5  HMQAKQVAIPDVANYSVTDAIKKLQDAGFIVSDEQREEANETVSEGKVSRTSPAAGSIRKEGTEIILYKSL     true (1)
6  HMADYYSILGLTKNATDIEIKSAFRKLAKIYHPDKNPDPNARVLFEHILKAYDTLINPHSRRRYDSL    false (0)

// next entry
Problem: Threshold query (soluble fraction (log2) >= -0.2) on HMSLRVIEIFGTPQQMSARISLMDGSVTDVKVGQSIPGTSYKVASITGNGVWIQNGTAVSYTHL
Result: false (0)

----------
Assay Remarks: soluble fraction after stress (log2 fold change); higher = more stays soluble; pooled small domains, quantitative proteomics
Assay Conditions: stress: 75 degC
Quantity: soluble fraction (log2)
Form field (numeric): enter value without unit.

>>> print(df.to_string())
                              item_sequence                 quantity  measurement
0  HMTKDEFLTTLRTLIQDMPPEDRRDVMNYYTEYFEDAGPEREQEVLRQLGSPEQVAREVLGG  soluble fraction (log2)      -0.0428
1  HMEPVTETVYAMDTVNIRAAADQTSEKIGSVTVGTALTRTGTDGDWSIIDYNGTTGYVKSEFLSNTAPEV  soluble fraction (log2)        0.253
2  HMDSNISVSEALEMVDKGSVKEIIVEGEKLYITNQDGKQYTSSKEVGVSLIELMKDSGIDPIKSDVNIIVK  soluble fraction (log2)        0.463
3  HMSEKRLHLVVDESDVNTRIDKYIADELDGYSRSFIQKLIKDNNVLVNGRAVKPNYNIGISDNIDIVLPKL  soluble fraction (log2)       0.0186

Problem: Identify soluble fraction (log2) associated with the sequence HMSETEWGEIYRKVMAAGLIPARSVRERLLALPSIEPLLQAAEAAGSKGMLDETLLDSLLSKT
Result: 0.0662

Problem: Identify soluble fraction (log2) associated with the sequence HMQTLQNNLKQIRSRVGLTQGELASRAGISRQAYSTLESGNANPSTEVSLRLAEALNERIESLFFLANQ
Result: -0.495

Problem: Identify soluble fraction (log2) associated with the sequence HMGNTLAYSEFRQKVQEGAVKQVVLSEDRVTGELTNGDRFTANIVRDPELLKMLNDNNVKYDGKPT
Result: 0.154

Problem: Identify soluble fraction (log2) associated with the sequence HMSKQDRRIRRTRRLLKESLIQLMQEKEFMNISVREVTERADLNRGTFYLHYQDTRHLLQDIENETL
Result: -3.3

----------
Assay Remarks: soluble fraction after stress (log2 fold change); higher = more stays soluble; pooled small domains, quantitative proteomics
Assay Conditions: stress: 75 degC
Quantity: soluble fraction (log2)
Form field (numeric): enter value without unit.

>>> df
                              item_sequence                 quantity  measurement
0  HMDQHERQQLLIHIAGGEREALAELYQRTRSAVYGLALSYLKNAHDAQDLTRDVYVQVWDRA  soluble fraction (log2)      -0.0158
1  HMISKYLRIESDILSAIREGRLKPGDKLPGQSEMRRIYNVSAITVRKAFTDLINDGYLVGVRGSGTYVAKR  soluble fraction (log2)        -0.91
2  HMRMRPNERQKRIIELLSFRRHETIGNFANEFGVSRDTIKRDIITLQEEYPIISERGYEGGISLPDGYYI  soluble fraction (log2)        -1.08

Kindly consider the entry below.
Problem: Identify soluble fraction (log2) associated with the sequence HMLIDQYPYSIIYRLIPHGRSNAVPAAQIVGLTKLDERSIRIYVEAMRREGHIIASSSKGYYFPASIEE
Result: -3.2

----------
Assay Remarks: soluble fraction after stress (log2 fold change); higher = more stays soluble; pooled small domains, quantitative proteomics
Assay Conditions: stress: 75 degC
Assign class by soluble fraction (log2): not lower than -0.07 means Condition met; lower than -0.07 means Condition not met.

In [3]: df
Out[3]:
                              item_sequence    class_label
0  HMDPSKMKIDELEIATRTATALADGGIKSVAGLIRKSASALKELDGVGDKAIAEITEALEKLGLELKG  Condition met

Problem: Threshold query (soluble fraction (log2) >= -0.07) on HMNEIDDYDIQLLEYLSKGVSQEAMESVFKQAGITPNSKSTIEKRISKLKIYFKALNTTHLVSITKDLGL
Result: Condition not met

Problem: Threshold query (soluble fraction (log2) >= -0.07) on HMEVTENQEKHAYQEAMDQALRFLAPRFLSRAELTRKLLQKEHDRDVIDAVIDRLEELDYVDDAR
Result: Condition met

Problem: Threshold query (soluble fraction (log2) >= -0.07) on HMDLLESLSAREREVVHLASRGLVNKLIARELGITERTVKAHLSSAFEKLHIKDRVHLALLVNGI
Result: Condition not met

----------
Assay Remarks: soluble fraction after stress (log2 fold change); higher = more stays soluble; pooled small domains, quantitative proteomics
Assay Conditions: stress: 75 degC
Quantity: soluble fraction (log2)
Form field (numeric): enter value without unit.

Solved cases below.
In [3]: df
Out[3]:
                              item_sequence  measurement
0  HMDLPSSETLKVKLNLAKAYVTIEDFGAARRALDEVLSVSSLVDPDLTIQAKSLLAEIDQRS       -0.352
1  HMISINVIGEMISGSYGNTPFSRTYEKDIYEQMVKLSDDADQAQTVEEYNKILAEFSLLTTEDLK       -0.546

Problem: Identify soluble fraction (log2) associated with the sequence HMSPAVSLITGKLGAETYYKQGLKKAKEKDYEGALDDLIKAYEFFPDKKIKTQVDKLASFLGKPPIL
Result: -0.259

Problem: Identify soluble fraction (log2) associated with the sequence HMGRTVKGVNFVGLRDAGDPVDLAEIYSKEGADELVFLDITATHEKRKTLLDLVTRVAERINIPFTVGGGI
Result: 0.056

----------
This section presents sequences with their documented soluble fraction (log2) values.
Assay Remarks: soluble fraction after stress (log2 fold change); higher = more stays soluble; pooled small domains, quantitative proteomics
Assay Conditions: stress: 75 degC
Form field (numeric): enter value without unit.

Solved cases below.
                              item_sequence                 quantity  measurement
0  HMTAVNEHELMNQFKLSLGYANGDDPQTKLSTDEKNDFMRFKEWATAMTKDSKMGKDPDYLKKLAVQWTLK  soluble fraction (log2)        0.278
1  HMDVIGLEAAKSAAVKDAGISSPTFTKATLDRDDGRSLYEIEFISGSTKYEYDIDALTGSVLSKKTRALS  soluble fraction (log2)        0.207
2  HMLAAAVVVYATDKVNVRAEASETADVIGQLEAGSQTTRLEDKDGWSRIDYSNGTQGYMKSEFLSTEAPT  soluble fraction (log2)        0.347

Problem: Identify soluble fraction (log2) associated with the sequence HMNTELFTKNLFNKLEVLLGEKNWKSKTAQLLNISSDAFYKKIRNESQLNLHELLLIKDTFKISIDALLDE
Result: -1.35

Problem: Identify soluble fraction (log2) associated with the sequence HMTFGEMLQYTNRLKEILESNAPQSIKDRRLANLMTDLEQAYGIPILRDQEFEKENPFLMQLYRTIS
Result: -2.4

Problem: Identify soluble fraction (log2) associated with the sequence HMTSDADSLRDKTGYVAEQVTSKGGKVNLYDGGFDSLYSARSTGETISTGTEIRVVDPGGGNMLVVEPV
Result: 0.948

Problem: Identify soluble fraction (log2) associated with the sequence HMETIELSAPGGVRLDKLIADGTELSRSAAVKLIEQGNVLVNGSPAGKKDIPAAGAAVEITLPEPQ
Result: 0.0135

Problem: Identify soluble fraction (log2) associated with the sequence HMQESTPGEGYKWREDVLLRVMSQNGIDESLRDEFVRHAVNYDIDDNMYLKKAEIESAAEAWVLENS
Result: 0.172

Problem: Identify soluble fraction (log2) associated with the sequence HMSEVIYVAEDNVGQRIDVFLVNKLVDASRANIQKNIVDGVILVNNKNVKANYKLRLGDVVEIRTQ
Result: -1.38
